Tested on: MCF7
procedure_details: Cytotoxicity against human MCF7 cells
Assay type: functional
applied_conditions: read-out: ED50 (the source's name)
Quick list: EC50 per entry.
Quick note: give the figure in µg/mL, leave out the unit.

Examples from the recorded data:
COc1cccc2c1C(=O)c1c(O)c3c(c(O)c1C2=O)C[C@@](O)(C(=O)CO)C[C@@H]3O[C@H]1C[C@H](N)[C@H](O)[C@H](C)O1	0.115
C=CC[C@]12C=C(OC)C(=O)C=C1O[C@@H](c1cc(OC)c3c(c1)OCO3)[C@H]2C	79
C=CC[C@@]12C[C@@H](OC)C(=O)C=C1O[C@@H](c1cc(OC)c3c(c1)OCO3)[C@H]2C	5.51
C=CC[C@@]12C[C@@H](OC)C(=O)C=C1O[C@@H](c1cc(OC)c(OC)c(OC)c1)[C@H]2C	4.09

Attention now shifts to the item below.
Prompt: # query: EC50 of entry C=CC[C@]1([C@H](C)[C@@H](OC(C)=O)c2cc(OC)c(OC)c(OC)c2)C[C@@H](OC)C=CC1=O [MEGAPHONE ACETATE]
Completion: 3.66
